- System: 772245-204-R-J1-PDC complex spheroid growth;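 also: compound exposure lasted seven days; 100% = DMSO vehicle control viability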
- TEST SUMMARY: Anticancer human tumor 772245-204-R-J1-PDC patient-derived rhabdomyosarcoma cell line growth inhibition [Asc]
- APPLIED CONDITIONS: second compound 0.01 µM; first compound 0.00316 µM; active compounds read low
MEASUREMENT TYPE: viability, T/C (%)
Please give a number only; it is taken to be in %.

Please fill in: viability, T/C reported for O=C(c1ccc(F)c(F)c1Nc1ccc(I)cc1F)N1CC(O)([C@@H]2CCCCN2)C1 + CNC(C)C(=O)NC1CN(S(=O)(=O)c2cccc(S(=O)(=O)N3CCC4CCC(C(=O)NC(c5ccccc5)c5ccccc5)N4C(=O)C(NC(=O)C(C)NC)C3)c2)CCC2CCC(C(=O)NC(c3ccccc3)c3ccccc3)N2C1=O = 93.1

For CCN1CCN(Cc2ccc(Nc3ncc(F)c(-c4cc(F)c5nc(C)n(C(C)C)c5c4)n3)nc2)CC1 + CNC(C)C(=O)NC1CN(S(=O)(=O)c2cccc(S(=O)(=O)N3CCC4CCC(C(=O)NC(c5ccccc5)c5ccccc5)N4C(=O)C(NC(=O)C(C)NC)C3)c2)CCC2CCC(C(=O)NC(c3ccccc3)c3ccccc3)N2C1=O the compound record lists viability, T/C as 104

The recorded viability, T/C for entry COc1c(OCCCN2CCOCC2)ccc2c3n(c(=NC(=O)c4cnc(N)nc4)nc12)CCN3 + CNC(C)C(=O)NC1CN(S(=O)(=O)c2cccc(S(=O)(=O)N3CCC4CCC(C(=O)NC(c5ccccc5)c5ccccc5)N4C(=O)C(NC(=O)C(C)NC)C3)c2)CCC2CCC(C(=O)NC(c3ccccc3)c3ccccc3)N2C1=O equals 108

// viability, T/C value for NC1CCC(NC2CC2c2ccccc2)CC1 (stereo not given) + CNC(C)C(=O)NC1CN(S(=O)(=O)c2cccc(S(=O)(=O)N3CCC4CCC(C(=O)NC(c5ccccc5)c5ccccc5)N4C(=O)C(NC(=O)C(C)NC)C3)c2)CCC2CCC(C(=O)NC(c3ccccc3)c3ccccc3)N2C1=O : 91.6

Notebook: Cn1ncnc1[C@H]1c2n[nH]c(=O)c3cc(F)cc(c23)N[C@@H]1c1ccc(F)cc1 + CNC(C)C(=O)NC1CN(S(=O)(=O)c2cccc(S(=O)(=O)N3CCC4CCC(C(=O)NC(c5ccccc5)c5ccccc5)N4C(=O)C(NC(=O)C(C)NC)C3)c2)CCC2CCC(C(=O)NC(c3ccccc3)c3ccccc3)N2C1=O , viability, T/C read as 91.7
